Experimental target: T1, Bicoid DBD-GST (Bcd) (UniProt P09081 83-170)
T1 sequence: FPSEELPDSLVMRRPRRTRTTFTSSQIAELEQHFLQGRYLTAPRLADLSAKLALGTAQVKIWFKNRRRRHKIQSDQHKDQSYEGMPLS
Experimental details: competitive fluorescence anisotropy (HiP-FA); mean of replicates 3.751, 3.7605; HiP-FA: 33 mM phosphate pH 7.0, 90 mM NaCl, 0.01% Tween 20, 0.1 mM DTT, 0.5% agarose; conventional titration and EMSA: 20 mM Tris-acetate pH 7.0, 50 nM (sic) NaCl, 0.01% Tween-20, 0.1 mM DTT
Assay conditions: protein: recombinant; tags: N-terminal GST; blunt, G:G mismatch at position 6
Readout kind: pKd
The quantity pKd is defined as the negative base-10 logarithm of the molar concentration.

Request: Supply pKd value. Item: Bcd competitor 3 (C1A) (dsDNA) DNA 1: TCGAAGGTAATCCCTA DNA 2: TAGGGATTACGTTCGA
Result: 8.43
